molecular target: Delta-type opioid receptor (Homo sapiens); assay: Antagonist activity at human cloned delta opioid receptor expressed in CHO cells assessed as inhibition of DPDPE-stimulated [35S]GTPgammaS binding; assay type: functional, cell-based
Returns t if the recorded Ke is greater than or equal to 900 nM, and f otherwise.

Does the reported Ke for "CC(C)[C@@H](CN1CC[C@@](C)(c2cccc(O)c2)[C@@H](C)C1)NC(=O)[C@H]1Cc2ccc(O)cc2CN1C" fall at or above the 900 nM mark?
f

Does the reported Ke for "CC[C@H](C)[C@@H](CN1CC[C@@](C)(c2cccc(O)c2)[C@@H](C)C1)NC(=O)[C@@]1(C)Cc2ccc(OC)cc2CN1" fall at or above the 900 nM mark?
f

Does the reported Ke for "CC[C@H](C)[C@@H](CN1CC[C@@](C)(c2cccc(OC)c2)[C@@H](C)C1)NC(=O)[C@@]1(C)Cc2ccc(O)cc2CN1" fall at or above the 900 nM mark?
t

Does the reported Ke for "COc1cccc([C@]2(C)CCN(C[C@@H](NC(=O)[C@@]3(C)Cc4ccc(OC)cc4CN3)C(C)C)C[C@@H]2C)c1" fall at or above the 900 nM mark?
t

Does the reported Ke for "COc1cccc([C@]2(C)CCN(C[C@@H](NC(=O)[C@H]3Cc4ccc(O)cc4CN3)C(C)C)C[C@@H]2C)c1" fall at or above the 900 nM mark?
f

Does the reported Ke for "CC(C)[C@@H](CN1CC[C@@](C)(c2cccc(O)c2)[C@@H](C)C1)NC(=O)[C@@]1(C)Cc2ccc(O)cc2CN1" fall at or above the 900 nM mark?
f

Does the reported Ke for "COc1cccc([C@]2(C)CCN(C[C@@H](NC(=O)[C@H]3Cc4ccc(O)cc4CN3C)C(C)C)C[C@@H]2C)c1" fall at or above the 900 nM mark?
t

Does the reported Ke for "CC[C@H](C)[C@@H](CN1CC[C@@](C)(c2cccc(OC)c2)[C@@H](C)C1)NC(=O)[C@H]1Cc2ccc(O)cc2CN1C" fall at or above the 900 nM mark?
t

Does the reported Ke for "COc1cccc([C@]2(C)CCN(C[C@@H](NC(=O)[C@@]3(C)Cc4ccc(O)cc4CN3)C(C)C)C[C@@H]2C)c1" fall at or above the 900 nM mark?
t

Does the reported Ke for "CC[C@H](C)[C@@H](CN1CC[C@@](C)(c2cccc(O)c2)[C@@H](C)C1)NC(=O)[C@H]1Cc2ccc(O)cc2CN1C" fall at or above the 900 nM mark?
f

Does the reported Ke for "COc1ccc2c(c1)CN[C@@](C)(C(=O)N[C@H](CN1CC[C@@](C)(c3cccc(O)c3)[C@@H](C)C1)C(C)C)C2" fall at or above the 900 nM mark?
f

----------
target: Mu-type opioid receptor (Homo sapiens); assay: Antagonist activity at human cloned mu opioid receptor expressed in CHO cells assessed as inhibition of DAMGO-stimulated [35S]GTPgammaS binding; type: functional, cell-based
I'd be grateful if you could share measured Ke for these entries.
Write the figure, then the unit, nothing else.

Data request, read-out Ke, for "COc1cccc([C@]2(C)CCN(C[C@@H](NC(=O)[C@H]3Cc4ccc(O)cc4CN3)C(C)C)C[C@@H]2C)c1"
24 nM

Data request, read-out Ke, for "CC(C)[C@@H](CN1CC[C@@](C)(c2cccc(O)c2)[C@@H](C)C1)NC(=O)[C@@]1(C)Cc2ccc(O)cc2CN1"
3.6 nM

Data request, read-out Ke, for "CC(C)[C@@H](CN1CC[C@@](C)(c2cccc(O)c2)[C@@H](C)C1)NC(=O)[C@H]1Cc2ccc(O)cc2CN1C"
210 nM

Data request, read-out Ke, for "CC[C@H](C)[C@@H](CN1CC[C@@](C)(c2cccc(OC)c2)[C@@H](C)C1)NC(=O)[C@H]1Cc2ccc(O)cc2CN1C"
360 nM

----------
I'd be grateful if you could share measured Ratio Ke for these entries.
species on record: Homo sapiens; experiment: Ratio of Ke for human cloned mu opioid receptor to Ke for human cloned kappa opioid receptor
Could you keep your reply to the number by itself?

Data request, read-out Ratio Ke, for "COc1ccc2c(c1)CN[C@@](C)(C(=O)N[C@H](CN1CC[C@@](C)(c3cccc(O)c3)[C@@H](C)C1)C(C)C)C2"
4

Data request, read-out Ratio Ke, for "COc1cccc([C@]2(C)CCN(C[C@@H](NC(=O)[C@H]3Cc4ccc(O)cc4CN3C)C(C)C)C[C@@H]2C)c1"
204

Data request, read-out Ratio Ke, for "CC[C@H](C)[C@@H](CN1CC[C@@](C)(c2cccc(O)c2)[C@@H](C)C1)NC(=O)[C@H]1Cc2ccc(O)cc2CN1"
100

Data request, read-out Ratio Ke, for "COc1ccc2c(c1)CN[C@@H](C(=O)N[C@H](CN1CC[C@@](C)(c3cccc(O)c3)[C@@H](C)C1)C(C)C)C2"
857

Data request, read-out Ratio Ke, for "CC(C)[C@@H](CN1CC[C@@](C)(c2cccc(O)c2)[C@@H](C)C1)NC(=O)[C@@]1(C)Cc2ccc(O)cc2CN1"
120

Data request, read-out Ratio Ke, for "CC[C@H](C)[C@@H](CN1CC[C@@](C)(c2cccc(O)c2)[C@@H](C)C1)NC(=O)[C@H]1Cc2ccc(O)cc2CN1C"
66

Data request, read-out Ratio Ke, for "CC[C@H](C)[C@@H](CN1CC[C@@](C)(c2cccc(OC)c2)[C@@H](C)C1)NC(=O)[C@H]1Cc2ccc(O)cc2CN1C"
180

----------
I'd be grateful if you could share measured Ke for these entries.
target: UniProtKB P41145; assay: Antagonist activity at human cloned kappa opioid receptor expressed in CHO cells assessed as inhibition of U69593-stimulated [35S]GTPgammaS binding; type: functional, cell-based
Sequence (P41145 whole entry): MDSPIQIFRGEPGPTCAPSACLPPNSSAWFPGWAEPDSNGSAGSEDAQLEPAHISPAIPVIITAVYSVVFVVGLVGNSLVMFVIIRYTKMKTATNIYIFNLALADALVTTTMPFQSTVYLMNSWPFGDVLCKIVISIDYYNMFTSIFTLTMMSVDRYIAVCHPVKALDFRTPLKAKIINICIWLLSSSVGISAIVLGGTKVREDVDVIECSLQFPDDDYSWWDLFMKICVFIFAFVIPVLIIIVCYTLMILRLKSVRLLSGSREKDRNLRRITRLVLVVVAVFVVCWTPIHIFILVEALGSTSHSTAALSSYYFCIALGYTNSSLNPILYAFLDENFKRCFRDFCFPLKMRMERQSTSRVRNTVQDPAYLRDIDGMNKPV
The answer is to be given in nM; state only the numeric part.

Data request, read-out Ke, for "CC[C@H](C)[C@@H](CN1CC[C@@](C)(c2cccc(O)c2)[C@@H](C)C1)NC(=O)[C@@]1(C)Cc2ccc(O)cc2CN1"
0.11

Data request, read-out Ke, for "COc1cccc([C@]2(C)CCN(C[C@@H](NC(=O)[C@H]3Cc4ccc(O)cc4CN3C)C(C)C)C[C@@H]2C)c1"
4.3

Data request, read-out Ke, for "CC[C@H](C)[C@@H](CN1CC[C@@](C)(c2cccc(O)c2)[C@@H](C)C1)NC(=O)[C@@]1(C)Cc2ccc(OC)cc2CN1"
3.5

Data request, read-out Ke, for "COc1ccc2c(c1)CN[C@@](C)(C(=O)N[C@H](CN1CC[C@@](C)(c3cccc(O)c3)[C@@H](C)C1)C(C)C)C2"
0.93

Data request, read-out Ke, for "CC[C@H](C)[C@@H](CN1CC[C@@](C)(c2cccc(O)c2)[C@@H](C)C1)NC(=O)[C@H]1Cc2ccc(O)cc2CN1C"
0.11

Data request, read-out Ke, for "CC(C)[C@@H](CN1CC[C@@](C)(c2cccc(O)c2)[C@@H](C)C1)NC(=O)[C@H]1Cc2ccc(O)cc2CN1C"
0.16

Data request, read-out Ke, for "CC[C@H](C)[C@@H](CN1CC[C@@](C)(c2cccc(OC)c2)[C@@H](C)C1)NC(=O)[C@@]1(C)Cc2ccc(O)cc2CN1"
0.52

----------
species: Homo sapiens; experiment: Ratio of Ke for human cloned delta opioid receptor to Ke for human cloned kappa opioid receptor
experimentalReadout: Ratio Ke
Could you keep your reply to the number by itself?

Data request, read-out Ratio Ke, for "COc1ccc2c(c1)CN[C@@H](C(=O)N[C@H](CN1CC[C@@](C)(c3cccc(O)c3)[C@@H](C)C1)C(C)C)C2"
1970

Data request, read-out Ratio Ke, for "CC(C)[C@@H](CN1CC[C@@](C)(c2cccc(O)c2)[C@@H](C)C1)NC(=O)[C@@]1(C)Cc2ccc(O)cc2CN1"
28500

Data request, read-out Ratio Ke, for "COc1cccc([C@]2(C)CCN(C[C@@H](NC(=O)[C@H]3Cc4ccc(O)cc4CN3C)C(C)C)C[C@@H]2C)c1"
535

Data request, read-out Ratio Ke, for "COc1cccc([C@]2(C)CCN(C[C@@H](NC(=O)[C@H]3Cc4ccc(O)cc4CN3)C(C)C)C[C@@H]2C)c1"
573

Data request, read-out Ratio Ke, for "CC(C)[C@@H](CN1CC[C@@](C)(c2cccc(O)c2)[C@@H](C)C1)NC(=O)[C@H]1Cc2ccc(O)cc2CN1"
3830

Data request, read-out Ratio Ke, for "CC[C@H](C)[C@@H](CN1CC[C@@](C)(c2cccc(O)c2)[C@@H](C)C1)NC(=O)[C@@]1(C)Cc2ccc(OC)cc2CN1"
5

Data request, read-out Ratio Ke, for "CC[C@H](C)[C@@H](CN1CC[C@@](C)(c2cccc(O)c2)[C@@H](C)C1)NC(=O)[C@H]1Cc2ccc(O)cc2CN1C"
1200

Data request, read-out Ratio Ke, for "CC(C)[C@@H](CN1CC[C@@](C)(c2cccc(O)c2)[C@@H](C)C1)NC(=O)[C@H]1Cc2ccc(O)cc2CN1C"
3070

Data request, read-out Ratio Ke, for "CC[C@H](C)[C@@H](CN1CC[C@@](C)(c2cccc(O)c2)[C@@H](C)C1)NC(=O)[C@H]1Cc2ccc(O)cc2CN1"
800

Data request, read-out Ratio Ke, for "COc1ccc2c(c1)CN[C@@](C)(C(=O)N[C@H](CN1CC[C@@](C)(c3cccc(O)c3)[C@@H](C)C1)C(C)C)C2"
40
